Assignment: determine reported self-cleavage kobs at 2500 uM GlcN6P for the given variants.
B1: glmS ribozyme (parent)
chain: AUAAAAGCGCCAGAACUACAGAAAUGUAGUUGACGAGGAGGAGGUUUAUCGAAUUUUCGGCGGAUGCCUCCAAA

- Variants of: B1
- assayDetails: self-cleavage kobs at 2500 uM GlcN6P; higher = faster cleavage; RNA array
- measurementConditions: with glucosamine-6-phosphate
Fewer inactive variants are shown than the library holds.
Just the number please, in s⁻¹, no unit attached.

Fill in: self-cleavage kobs at 2500 uM GlcN6P of A6U C70G is ___ 5.38e-05

Fill in: self-cleavage kobs at 2500 uM GlcN6P of U65G U69G is ___ 6.29e-05

Fill in: self-cleavage kobs at 2500 uM GlcN6P of U56G C67A is ___ 0.000842

Fill in: self-cleavage kobs at 2500 uM GlcN6P of G40A G41C is ___ 0.000179

Fill in: self-cleavage kobs at 2500 uM GlcN6P of U31A U65A is ___ 0.00107

Fill in: self-cleavage kobs at 2500 uM GlcN6P of U30A U31A is ___ 0.0075

Fill in: self-cleavage kobs at 2500 uM GlcN6P of U30A U56G is ___ 0.0019

Fill in: self-cleavage kobs at 2500 uM GlcN6P of A39U G41A is ___ 0.00025

Fill in: self-cleavage kobs at 2500 uM GlcN6P of U30C U55G is ___ 0.000236

Fill in: self-cleavage kobs at 2500 uM GlcN6P of A12U A42C is ___ 1.75e-05

Fill in: self-cleavage kobs at 2500 uM GlcN6P of A6U A39U is ___ 5.5e-05

Fill in: self-cleavage kobs at 2500 uM GlcN6P of C67G C68U is ___ 6.33e-05

Fill in: self-cleavage kobs at 2500 uM GlcN6P of A12G U55A is ___ 0.000248

Fill in: self-cleavage kobs at 2500 uM GlcN6P of U47G A64G is ___ 0.00542
